# target-under-test: T1, ADAR1-dsRBD3 wild-type (dsRBD3-mid) (Homo sapiens, UniProt P55265 708-801)
# T1 sequence: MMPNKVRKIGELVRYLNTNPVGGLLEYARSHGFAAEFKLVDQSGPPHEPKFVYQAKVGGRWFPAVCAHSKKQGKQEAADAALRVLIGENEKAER
# test-method-notes: ITC; N = 4.15 ± 0.42; source data sheet gives 123 nM; ITC: 25 mM Na-phosphate pH 7.0, 100 mM NaCl, 2 mM 2-mercaptoethanol, 25 °C; 2.25 uM dsRNA in cell, 80 uM protein in syringe
# reported-conditions: protein: recombinant; tags: N-terminal His6 (uncleaved); chain copies: 2; blunt
result-type: pKd
Friendly reminder that pKd comes from taking -log10 of the concentration in mol/L.

Exercise: # pKd lookup, item 24 bp dsRNA duplex (dsRNA) RNA 1: GGGAUCAAUAUGCUAAGCGAUCCC RNA 2: GGGAUCGCUUAGCAUAUUGAUCCC
Key: 6.90
